Where do these numbers come from? They come from paper PMC10600239.

Test: Phase 1 first-in-human study (NCT04178902): pharmacokinetics
Type: in vivo
Settings: human, plasma, intravenous, […], Cycle 1 day 15, […], N=3
Excerpt: Other eligibility criteria included: Eastern Cooperative Oncology Group performance status ≤2, measurable disease as defined by International Myeloma Working Group (IMWG) consensus criteria, an echocardiogram with an ejection fraction ≥50%, and adequate hematologic, hepatic, and renal function. […]
parameter_measured: clearance (mL/min/kg)
Give the value in mL/min/kg but do not write mL/min/kg after it.

Tell me the measured clearance of Cc1c(Cl)c2c(Cl)c(C)c1-c1c(-c3ccc(F)cc3)sc3ncnc(c13)O[C@@H](C(=O)O)Cc1cc(ccc1OCc1ccnc(-c3ccc(OC[C@H]4COCCO4)cc3)n1)OC[C@@H](CN1CCN(C)CC1)O2 [ABBV-467] , please.
10.4
